measuredTarget: T1, serum purified human Complement Factor D (human, UniProt P00746 26-253)
T1 construct: Serum purified protein flowed over the captured antibodies; also called CFD; human CFD
T1 sequence (P00746 26-253): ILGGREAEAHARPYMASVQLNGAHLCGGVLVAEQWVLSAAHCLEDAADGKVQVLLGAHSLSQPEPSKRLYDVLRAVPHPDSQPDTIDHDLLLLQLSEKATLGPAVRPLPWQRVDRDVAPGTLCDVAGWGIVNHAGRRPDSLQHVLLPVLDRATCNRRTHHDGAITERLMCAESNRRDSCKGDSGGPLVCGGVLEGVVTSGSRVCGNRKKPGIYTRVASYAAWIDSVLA
experimentalProtocol: SPR Biacore, antibody on protein A chip, single cycle kinetics, 37 C
readoutKind: Kd (pM)
Could you give me the number in pM? Just the number is fine.

Which Kd is listed for 34I54I59D84S / 54R101V (antibody, human IgG1, V domains shown, Human IgG1 kappa; also called OG1965) VH: EVQLVESGGGLVQPGGSLRLSCAASGYTFTDYYINWVRQAPGKGLEWIGDINPITGDTDYNADFKRRFTFSLDTSKSTAYLQMSSLRAEDTAVYYCTREGPSFAYWGQGTLVTVSS VL: DIQLTQSPSSLSASVGDRVTITCRSSQTIVHSNGDTYLEWYQQKPGKAPNLLIRKVSNRFSGVPSRFSGSGSGTDFTLTISSLQPEDFATYYCFQGSHVPVTFGQGTKVEIKR ?
5.04
